biological target: Hepatocyte growth factor receptor (Homo sapiens, UniProt P08581, L1195V); assay: Inhibition of phosphorylated MET L1195V mutant (unknown origin) pre-incubated for 30 mins before biotinylated poly(glutamate-alanine-tyrosine) peptide addition and measured after 5 mins by HTRF assay
Sequence (P08581 25-1390 L1195V limits assumed): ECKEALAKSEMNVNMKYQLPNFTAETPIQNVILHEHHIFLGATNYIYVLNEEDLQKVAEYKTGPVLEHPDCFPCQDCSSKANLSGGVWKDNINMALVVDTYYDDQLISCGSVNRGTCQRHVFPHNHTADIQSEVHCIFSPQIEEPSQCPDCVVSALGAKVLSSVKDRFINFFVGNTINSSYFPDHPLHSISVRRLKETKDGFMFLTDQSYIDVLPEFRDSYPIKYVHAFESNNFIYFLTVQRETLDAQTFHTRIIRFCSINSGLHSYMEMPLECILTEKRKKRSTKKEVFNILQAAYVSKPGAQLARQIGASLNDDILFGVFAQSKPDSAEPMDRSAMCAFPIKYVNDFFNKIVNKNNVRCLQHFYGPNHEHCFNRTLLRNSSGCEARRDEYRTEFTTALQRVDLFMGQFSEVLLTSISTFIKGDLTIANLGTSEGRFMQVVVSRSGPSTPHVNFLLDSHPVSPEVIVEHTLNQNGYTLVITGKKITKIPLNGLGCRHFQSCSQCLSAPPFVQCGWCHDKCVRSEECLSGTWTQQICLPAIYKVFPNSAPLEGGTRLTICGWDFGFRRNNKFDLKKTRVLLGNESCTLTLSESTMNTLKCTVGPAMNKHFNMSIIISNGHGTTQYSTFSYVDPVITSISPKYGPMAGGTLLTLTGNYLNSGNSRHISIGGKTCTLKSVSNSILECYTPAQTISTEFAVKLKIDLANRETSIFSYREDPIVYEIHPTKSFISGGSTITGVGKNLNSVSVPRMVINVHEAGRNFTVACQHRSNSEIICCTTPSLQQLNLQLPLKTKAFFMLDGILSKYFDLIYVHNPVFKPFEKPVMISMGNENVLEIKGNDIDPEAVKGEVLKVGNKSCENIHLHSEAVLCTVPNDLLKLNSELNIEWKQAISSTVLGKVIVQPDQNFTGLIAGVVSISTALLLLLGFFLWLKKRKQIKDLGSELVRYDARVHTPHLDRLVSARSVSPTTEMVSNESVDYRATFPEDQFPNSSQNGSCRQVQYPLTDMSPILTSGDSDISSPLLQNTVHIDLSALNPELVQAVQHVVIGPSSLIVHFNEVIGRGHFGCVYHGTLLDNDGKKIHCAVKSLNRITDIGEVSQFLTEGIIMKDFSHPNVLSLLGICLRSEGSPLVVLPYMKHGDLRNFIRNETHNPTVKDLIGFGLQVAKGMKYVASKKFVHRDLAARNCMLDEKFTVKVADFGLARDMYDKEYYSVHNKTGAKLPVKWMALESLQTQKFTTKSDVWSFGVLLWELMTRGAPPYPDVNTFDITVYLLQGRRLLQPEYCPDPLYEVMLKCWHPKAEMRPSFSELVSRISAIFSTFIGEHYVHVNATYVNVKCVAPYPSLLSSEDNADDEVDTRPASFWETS
Assign pIC50 to each entry below.
One number for each entry, as −log10 of the molar value.

Examples with their reported pIC50 follow.
> print(dat)
                           structure.smiles  measured.parameter  number
1  Fc1ccc(-c2ccc3nnc(Sc4ccc5nc(NCCN6CCOCC6)sc5c4)n3n2)cc1               pIC50    6.08
2  O=C(Nc1nc2ccc(Sc3nnc4ccc(-c5ccc(F)cc5)nn34)cc2s1)OCCN1CCOCC1               pIC50    5.19

# ---- query compound ----
Inquiry: Item: O=C(CCCN1CCOCC1)Nc1nc2ccc(Sc3nnc4ccc(-c5ccc(F)cc5)nn34)cc2s1 Test system: Hepatocyte growth factor receptor (Homo sapiens, UniProt P08581, L1195V) Read-out: pIC50 Value: ?
Reply text: 6.50
